Data origin, for the record: patent US20030069276A1

- assay system: human CCR5 (Homo sapiens)
- Sequence (P51681 whole entry): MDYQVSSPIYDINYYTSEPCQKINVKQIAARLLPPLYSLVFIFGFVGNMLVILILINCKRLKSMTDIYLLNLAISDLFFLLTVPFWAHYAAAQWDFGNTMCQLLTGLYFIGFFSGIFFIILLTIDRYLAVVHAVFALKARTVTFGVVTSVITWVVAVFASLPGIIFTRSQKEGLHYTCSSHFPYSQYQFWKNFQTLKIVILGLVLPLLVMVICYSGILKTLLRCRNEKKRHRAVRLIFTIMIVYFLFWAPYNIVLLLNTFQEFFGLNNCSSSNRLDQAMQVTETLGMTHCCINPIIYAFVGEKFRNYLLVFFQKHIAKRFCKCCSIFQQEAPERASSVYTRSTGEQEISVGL
- protocol: gp120-sCD4-CCR5 binding assay (FACS)
- measurement conditions: CHO-K1 cell line stably transfected with the human CCR5 gene; biotinylated gp120 (JRFL strain) and soluble recombinant CD4; 1% DMSO
Please note: IC50 exactly at 1000 nM is condition not met. Only values below 1000 nM get condition met.

CNC(=O)N(Cc1ccccc1)C1CCN(Cc2nc(-c3ccc(C(F)(F)F)cc3)[nH]c2-c2ccccc2)CC1 ... condition not met
Cc1ccc(-c2nc(CN3CCC(N(Cc4ccccc4)C(=O)Nc4ccccc4)CC3)c(C)[nH]2)cc1 ... condition met
CNC(=O)N(Cc1ccccc1)C1CCN(Cc2c(C)nc(-c3ccc(C(F)(F)F)cc3)n2Cc2ccccc2)CC1 ... condition not met
CNC(=O)N(Cc1ccccc1)C1CCN(Cc2nc(-c3ccccc3OC)[nH]c2C)CC1 ... condition not met
Cc1[nH]c(-c2ccc(C(F)(F)F)cc2)nc1CN1CCC(N(Cc2ccccc2)C(=O)Nc2ccc([N+](=O)[O-])cc2)CC1 ... condition met

Consider now this further compound.
Query: Say whether its IC50 is strictly beneath 1000 nM. Entry: `CNC(=O)N(Cc1ccccc1)C1CCN(Cc2nc(-c3ccc(C(F)(F)F)cc3)[nH]c2C)CC1`
Reply: condition met
